Taken from patent CN116284408A.

target: T1, 人MUC17-Fc蛋白 (human, UniProt Q685J3 4131-4390); assay: ELISA, MUC17-Fc coated, murine antibody titrated
T1 construct: range 4131-4390; No linker is described; also called MUC17抗原; not shown: C-terminal Fc tag
T1 sequence (Q685J3 4131-4390 limits assumed, form in doubt): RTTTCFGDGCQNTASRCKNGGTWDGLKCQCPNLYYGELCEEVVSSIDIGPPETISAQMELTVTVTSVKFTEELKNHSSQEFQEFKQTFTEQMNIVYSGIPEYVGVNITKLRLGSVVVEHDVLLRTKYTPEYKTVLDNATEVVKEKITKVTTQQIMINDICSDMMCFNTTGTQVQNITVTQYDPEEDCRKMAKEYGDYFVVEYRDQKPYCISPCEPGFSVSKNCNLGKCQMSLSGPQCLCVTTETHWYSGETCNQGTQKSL
// values below are reported EC50

binder	scale-unit	EC50
50A5 (antibody, V domains shown) VH: QVQLKESGPGLVAPSQSLSITCTVSGFSLTAYGVHWVRQPPGKGLEWLGGIWAGGNTQSHSALMSRLTISKDISKSQVFLRMNSLQTDDSAMYYCARALFYGNFDVWGAGTTVTVSS VL: DIVMTQSQRFMSTSVGDRVSVTCKASQSVDTSVAWYQQRPGQSPEALIFSASYRYSGVPDRFTGSGSGTDFTLTISNVQSEDLAEYFCQQYNSYPYTFGGGTNLEIK	µg/mL	0.0813
15D10 (antibody, V domains shown) VH: QVQLQQPGAELVKPGASVKMSCKASGYTFTTYWMHWVKQRSGQGLEWIGVIDPSDSYTRYNQKFKDKATLTVDTSSSTAYMHLTSLTSEDSAVYYCTRSGIGNSFIMDYWGQGTSVTVSS VL: QVVLTQSPAIMPAFPGEKVTISCSASSSVIYMFWYQQKPGSSPKPWIYRTSNLASGVPARFTGSGSGTSYSLTISSMEAEDAATYYCQQYHSYPLTFGVGTKLELK	µg/mL	0.0317
27A3 (antibody, V domains shown, Mouse monoclonal antibody from a hybridoma, purified on Protein G; also called 鼠源抗体27A3; 杂交瘤抗体27A3) VH: QVQLQQPGAELVRPGASVKLSCKASGYSFTIYWMHWVKQRPGQGLEWIGMSHPSDSESRLNQKFKDKATLTVDKSSSTAYMQLSSPTSEDSAVYYCSRPYYGSSAWFADWGQGTLVTVSA VL: DIVMTQSPSSLAMSVGQKVTMSCKSSQSLLNSSNQKNYLAWYQQKPGQSPKLLIYFASTRESGVPDRFIGSGSGTDFTLSISSVQAEDLADYFCQQHYSFPLTFGAGTKLELR	µg/mL	0.0202
19E11 (antibody, V domains shown, Mouse monoclonal antibody from a hybridoma, purified on Protein G; also called 鼠源抗体19E11; 杂交瘤抗体19E11) VH: EVQLQQSGPELEKPGASVKISCKASGFSFTGYNMNWVKQSNGKSLEWIGNIDPYYGGTTYNQKFKGKATLTVDISSSTAHMELKSLTSEDSAVYFCARSVTTVGYPMDYWGQGTSVTVSS VL: DIVMTQSPSSLAMSVGQKVTMNCKSSQSLLNSYNHKNCLAWYQQKPGQSPKLLISFASARESGVPDRFIGSGSGTDFTLTISSVQAEDLADYFCHQHYTSPLTFGAGTKLELK	µg/mL	0.0376
